System: HEK-Blue IL-17 cells with rhIL-17A/A
Assay: HEK-Blue IL-17 cell assay (SEAP reporter, rhIL-17A/A stimulation)
Assay type: cell-based, human
Details: Homo sapiens, HEK-Blue, 20 h, 20 hours incubation, absorbance at 405 nm, read-out: IC50 in HEK-Bule cell Assay
Each record is given true (1) if its reported IC50 is strictly below 200 nM. Records at or above 200 nM are given false (0).

Compound | Experimental target | Assigned label
CC(C)n1nccc1C(=O)N[C@H](C(=O)Nc1ccc2c(c1)OCCC2CC(=O)N1CC(F)(F)C(F)(F)C1)C1CCCCCC1 (stereo partly drawn) | HEK-Blue IL-17 cells with rhIL-17A/A | false (0)
CC(C)n1nccc1C(=O)N[C@H](C(=O)Nc1ccc2c(c1)OCC[C@H]2C(=O)N1CC(F)(F)C1)C1CCCCCC1 | HEK-Blue IL-17 cells with rhIL-17A/A | false (0)
CC(C)[C@H]1C[C@H](C(=O)N2CC(F)(F)C(F)(F)C2)c2ccc(NC(=O)[C@@H](NC(=O)c3ccnn3C(C)C)C3CCCCCC3)cc2O1 | HEK-Blue IL-17 cells with rhIL-17A/A | false (0)

Dear colleague, could you confirm whether IC50 of O=C(N[C@H](C(=O)Nc1cc2c(cc1F)C(C(=O)N1CC(F)(F)C1)CC(C1CC(F)(F)C1)O2)C1CCCCCC1)OC[C@@H]1CC1(F)F (stereo partly drawn) falls below 200 nM? Thanks. false (0)

Dear colleague, could you confirm whether IC50 of CC(C)CC1CC(C(=O)N2CC(F)(F)C2)c2ccc(NC(=O)[C@@H](NC(=O)c3ccnn3C(C)C)C3CCCCCC3)cc2O1 (stereo partly drawn) falls below 200 nM? Thanks. true (1)

Dear colleague, could you confirm whether IC50 of CC(C)n1nccc1C(=O)N[C@H](C(=O)Nc1ccc2c(c1)OC(C1CCC1)CC2C(=O)N1CC(F)(F)C(F)(F)C1)C1CCCCCC1 (stereo partly drawn) falls below 200 nM? Thanks. false (0)
